systemName: RXRα (Homo sapiens)
Sequence (P19793 1-462): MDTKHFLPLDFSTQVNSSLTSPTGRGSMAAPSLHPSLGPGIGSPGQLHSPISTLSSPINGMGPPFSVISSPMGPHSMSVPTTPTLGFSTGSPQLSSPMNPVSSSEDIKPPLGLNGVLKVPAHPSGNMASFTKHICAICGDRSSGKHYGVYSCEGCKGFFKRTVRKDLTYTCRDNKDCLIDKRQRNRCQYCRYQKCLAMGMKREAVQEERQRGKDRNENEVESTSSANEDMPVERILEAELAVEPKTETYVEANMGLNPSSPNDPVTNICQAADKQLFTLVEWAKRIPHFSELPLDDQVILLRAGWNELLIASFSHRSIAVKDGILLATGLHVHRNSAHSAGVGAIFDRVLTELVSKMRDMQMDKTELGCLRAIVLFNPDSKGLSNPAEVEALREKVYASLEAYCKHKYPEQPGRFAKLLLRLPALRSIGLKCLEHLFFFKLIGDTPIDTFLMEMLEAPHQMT
assay: Co-transfection assay, RXRα agonist activity
assayConditions: CV-1 cells, 40 hours; read-out: RXRα Pot (potency, EC50)
experimentalEndpoint: pEC50
Notebook: values listed as pEC50 are -log10 of the concentration (mol/L).

Please look up its pEC50: CC(/C=C/C=C1/CC(C)(C)Oc2cc3c(cc21)C(C)(C)CCC3(C)C)=C\C(=O)O [Compound 104b]
7.74

Values from patent US5770382A
